Tested on: GRO-α induced chemotaxis of polymorphonucleate leukocytes (PMNs)
assay-explanation: GRO-α induced chemotaxis of human PMNs
Format: cell-based
particulars: Leukocyte, values marked *: 10^−7 M, Table 1, read-out: GRO-α (% of inhibition at 10^−7 M)
Consider the following molecules and their measured inhibition at 0.1 µM readings.
quantity: inhibition at 0.1 µM (%)

1. C[C@](F)(C(=O)O)c1ccc(OS(=O)(=O)C(F)(F)F)cc1 [Compound 3] | 49
2. CC(C)NC(=O)C(C)(F)c1ccc(OS(=O)(=O)C(F)(F)F)cc1 (stereo not shown) [Compound 12] | 45
3. CC(F)(C(=O)O)c1ccc(OS(=O)(=O)C(F)(F)F)cc1 (stereo not shown) [Compound 1] | 47
4. C[C@@](F)(C(=O)O)c1ccc(OS(=O)(=O)C(F)(F)F)cc1 [Compound 2] | 43

###

assay-explanation: Pharmacokinetic profile after intravenous and oral administration
Assay type: in vivo
particulars: male, rat, plasma, po
quantity: bioavailability

1) C[C@@H](C(N)=O)c1ccc(OS(=O)(=O)C(F)(F)F)cc1 | 72%
2) C[C@](F)(C(N)=O)c1ccc(OS(=O)(=O)C(F)(F)F)cc1 [drawing 24] | 46.8%
3) C[C@@](F)(C(N)=O)c1ccc(OS(=O)(=O)C(F)(F)F)cc1 [drawing 25] | 84.2%
4) CC(O)(C(N)=O)c1ccc(OS(=O)(=O)C(F)(F)F)cc1 (stereo not shown) | 85%

###

Consider the following compounds and their measured half-life readings.
assay-explanation: Pharmacokinetic profile after intravenous and oral administration
Format: in vivo
particulars: male, rat, plasma; read-out: t½ (converted)
quantity: half-life (h)

1. C[C@](F)(C(N)=O)c1ccc(OS(=O)(=O)C(F)(F)F)cc1 [drawing 24] | 13.8
2. C[C@@](F)(C(N)=O)c1ccc(OS(=O)(=O)C(F)(F)F)cc1 [drawing 25] | 9.1
3. CC(O)(C(N)=O)c1ccc(OS(=O)(=O)C(F)(F)F)cc1 (stereo not shown) | 25
4. C[C@@H](C(N)=O)c1ccc(OS(=O)(=O)C(F)(F)F)cc1 | 1.9

###

Consider the following molecules and their measured inhibition at 0.01 µM readings.
Tested on: C5a induced chemotaxis of polymorphonucleate leukocytes (PMNs)
assay-explanation: C5a induced chemotaxis of human PMNs
Type: cell-based
particulars: Leukocyte, 10^−8 M, Table 2
quantity: inhibition at 0.01 µM (%)

1) CC(F)(C(N)=O)c1cccc(Nc2nc(C(F)(F)F)cs2)c1 (stereo not shown) | 33
2) C[C@@](F)(C(=O)NCCCN1CCCC1)c1ccc(OS(=O)(=O)C(F)(F)F)cc1 | 53
3) CC(F)(C(N)=O)c1cccc(C(=O)c2ccccc2)c1 (stereo not shown) [Compound 13, 2-(3-benzoylphenyl)-2-fluoropropanamide] | 47
4) C[C@](F)(C(=O)NC[C@H]1CCCN1)c1ccc(OS(=O)(=O)C(F)(F)F)cc1 | 45

###

assay-explanation: Pharmacokinetic profile after intravenous and oral administration
Type: in vivo
particulars: male, rat, plasma
quantity: Vd (L/kg)

1. C[C@](F)(C(N)=O)c1ccc(OS(=O)(=O)C(F)(F)F)cc1 [drawing 24] | 0.631
2. CC(O)(C(N)=O)c1ccc(OS(=O)(=O)C(F)(F)F)cc1 (stereo not shown) | 1.33
3. C[C@@](F)(C(N)=O)c1ccc(OS(=O)(=O)C(F)(F)F)cc1 [drawing 25] | 1.47
4. C[C@@H](C(N)=O)c1ccc(OS(=O)(=O)C(F)(F)F)cc1 | 0.55

###

Consider the following compounds and their measured clearance readings.
assay-explanation: Pharmacokinetic profile after intravenous and oral administration
Format: in vivo
particulars: male, rat, plasma
quantity: clearance (mL/min/kg)

1. C[C@@H](C(N)=O)c1ccc(OS(=O)(=O)C(F)(F)F)cc1 | 3.67
2. CC(O)(C(N)=O)c1ccc(OS(=O)(=O)C(F)(F)F)cc1 (stereo not shown) | 0.65
3. C[C@@](F)(C(N)=O)c1ccc(OS(=O)(=O)C(F)(F)F)cc1 [drawing 25] | 2.28
4. C[C@](F)(C(N)=O)c1ccc(OS(=O)(=O)C(F)(F)F)cc1 [drawing 24] | 0.53
